test system: WM-115 (Melanoma); experiment: Bliss excess, mean over the matrix (fraction); higher = more synergy;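 also: after 72 h of two-drug dosing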
property: Bliss excess
Give bare numbers.

Consider the reported Bliss excess for these compounds:
Cc1cc2ncnn2cc1Nc1ncc2c(n1)n(C1CCOCC1)c(=O)n2C [AZD7648] + C=CCn1c(=O)c2cnc(Nc3ccc(N4CCN(C)CC4)cc3)nc2n1-c1cccc(C(C)(C)O)n1 [AZD1775] (first compound max 10 µM, partner max 1 µM) : 0.0217
COc1nnc2ccc(N3CCC(c4ccc(OCCN5CCN(C)C(=O)[C@H]5C)cc4)CC3)nn12 [AZD5153] + C=CCn1c(=O)c2cnc(Nc3ccc(N4CCN(C)CC4)cc3)nc2n1-c1cccc(C(C)(C)O)n1 [AZD1775] (first compound max 1 µM, partner max 1 µM) : -0.11
CC1(C)CCC(CN2CCN(c3ccc(C(=O)NS(=O)(=O)c4ccc(NCC5CCOCC5)c([N+](=O)[O-])c4)c(Oc4cnc5[nH]ccc5c4)c3)CC2)=C(c2ccc(Cl)cc2)C1 [Venetoclax] + C[C@@H](Nc1cc(F)cc(F)c1)c1cc(C(=O)N(C)C)cc2c(=O)cc(N3CCOCC3)oc12 [AZD8186] (first compound max 1 µM, 7x7, partner max 3 µM) : -0.0112
COc1nnc2ccc(N3CCC(c4ccc(OCCN5CCN(C)C(=O)[C@H]5C)cc4)CC3)nn12 [AZD5153] + CCN(CCO)CCCOc1ccc2c(Nc3cc(CC(=O)Nc4cccc(F)c4)[nH]n3)ncnc2c1 [AZD2811] (first compound max 1 µM, 7x7, partner max 1 µM) : -0.0814

// for each compound in input: emit Bliss excess
1. C[C@@H](c1ccc2nccn2c1)n1nnc2ncc(-c3cnn(C)c3)nc21 [Savolitinib] + CC1(C)CCC(CN2CCN(c3ccc(C(=O)NS(=O)(=O)c4ccc(NCC5CCOCC5)c([N+](=O)[O-])c4)c(Oc4cnc5[nH]ccc5c4)c3)CC2)=C(c2ccc(Cl)cc2)C1 [Venetoclax] (first compound max 1 µM, 7x7, partner max 1 µM)
2. O=C(c1cc(Cc2n[nH]c(=O)c3ccccc23)ccc1F)N1CCN(C(=O)C2CC2)CC1 [Olaparib] + CC1(C)CCC(CN2CCN(c3ccc(C(=O)NS(=O)(=O)c4ccc(NCC5CCOCC5)c([N+](=O)[O-])c4)c(Oc4cnc5[nH]ccc5c4)c3)CC2)=C(c2ccc(Cl)cc2)C1 [Venetoclax] (first compound max 10 µM, 7x7, partner max 1 µM)
3. Cc1cc2ncnn2cc1Nc1ncc2c(n1)n(C1CCOCC1)c(=O)n2C [AZD7648] + CN(C)CCCOc1ccc(-c2ccc3ncc4c(c3c2)n(C2CCOCC2)c(=O)n4C)cn1 [AZD0156] (first compound max 10 µM, 7x7, partner max 1 µM)

OUTPUT:
-0.0346
-0.052
-0.0098
